tested on: 786-O; assay: Euclidean distance of Cell Painting phenotypic profile (signed KS, 77 features) to DMSO centroid (dimensionless distance); 5 or 10 uM (library dependent); higher = stronger phenotypic change vs DMSO (phenoactivity); conditions: 48 h
Where a name gives a salt, the structure may show the parent alone.
Everything with Euclidean distance lower than 1 is class 0; everything else, including exactly 1, is class 1.

Examples with answers:
Molecule | Discrete label
CC(=O)O[C@@]12CO[C@@H]1C[C@H](O)[C@@]1(C)C(=O)[C@H](O)C3=C(C)[C@@H](OC(=O)[C@H](O)[C@@H](NC(=O)OC(C)(C)C)c4ccccc4)C[C@@](O)([C@@H](OC(=O)c4ccccc4)[C@H]21)C3(C)C [Docetaxel] | class 1
COc1ccc2c(c1)c(CC(=O)OCC(=O)O)c(C)n2C(=O)c1ccc(Cl)cc1 [Acemetacin] | class 0
CCN(CC)CCOc1ccc(C(=C(Cl)c2ccccc2)c2ccccc2)cc1 [Clomifene citrate] | class 1
O=NN(CCCl)C(=O)NCCCl [Carmustine] | class 1
OC[C@H]1O[C@@H](Oc2ccc(O)cc2)[C@H](O)[C@@H](O)[C@@H]1O [Arbutin] | class 1
Cc1[nH]c2ccccc2c1CCNCc1ccc(/C=C/C(=O)NO)cc1 [Panobinostat] | class 1
O=C1OC(CN2CCOCC2)CN1/N=C/c1ccc([N+](=O)[O-])o1 (configuration not stated) [Furaltadone HCl] | class 0
C[C@H](N)[C@H](O)c1cccc(O)c1 [Metaraminol Bitartrate] | class 0

Task item: Check the entry CN(C)CCCN1c2ccccc2CCc2ccc(Cl)cc21 [Clomipramine HCl] : does Euclidean distance equal or exceed 1?
Reply: class 1

Task item: API: above_or_equal(metric=Euclidean distance, cutoff=1) for item CCc1cc(C(N)=O)ccc1-n1nc(C(C)C)c2c(-n3cnc(-c4cnn(C)c4)c3)ccnc21
Reply: class 1

Task item: Is reported Euclidean distance greater than or equal to 1 here: C=CC(=O)Nc1cccc(Oc2nc(Nc3ccc(N4CCN(C)CC4)cc3)nc3ccsc23)c1
Reply: class 1

Task item: Check if Euclidean distance >= 1 (inclusive). Item: NCCc1c[nH]cn1 [Histamine 2HCl]
Reply: class 1

Task item: Answer whether Euclidean distance of CC(C)c1nc(CN(C)C(=O)N[C@H](C(=O)N[C@@H](Cc2ccccc2)C[C@H](O)[C@H](Cc2ccccc2)NC(=O)OCc2cncs2)C(C)C)cs1 [Ritonavir] is greater than or equal to 1.
Reply: class 1

Task item: Record OC(CCN1CCCC1)(c1ccccc1)C1CCCCC1 (configuration not stated) [Procyclidine HCl] ; criterion: Euclidean distance no lower than 1. Met?
Reply: class 0

Task item: Check this molecule for Euclidean distance at or above 1: CN1C(=O)CC(c2ccccc2)C1=O (configuration not stated) [Phensuximide]
Reply: class 0

Task item: Quick check, Euclidean distance >= 1? COCCCN1CCC(NC(=O)c2cc(Cl)c(N)c3c2OCC3)CC1 [Prucalopride Succinat]
Reply: class 0

====

system: HEPG2; assay: Euclidean distance of Cell Painting phenotypic profile (signed KS, 77 features) to DMSO centroid (dimensionless distance); 5 or 10 uM (library dependent); higher = stronger phenotypic change vs DMSO (phenoactivity); settings: 48 h
# Euclidean distance per record follows

Worked examples follow.
Compound | System tested | Attribute measured | Val
O=C1Nc2ccc(Cl)cc2[C@@](C#CC2CC2)(C(F)(F)F)O1 | HEPG2 | Euclidean distance | 0.747
FC(F)(F)c1ccc(/C=C/c2nc(COc3ccc(CCCCn4ccnn4)cc3)co2)cc1 | HEPG2 | Euclidean distance | 1.89
O=C(O[C@@H]1Cc2c(O)cc(O)cc2O[C@@H]1c1cc(O)c(O)c(O)c1)c1cc(O)c(O)c(O)c1 [(-)-Epigallocatechin Gallate] | HEPG2 | Euclidean distance | 1.17
CN1CCN2c3ncccc3Cc3ccccc3C2C1 (stereo not drawn) | HEPG2 | Euclidean distance | 0.332
N=C1CCCN1Cc1[nH]c(=O)[nH]c(=O)c1Cl.O=c1[nH]c(=O)n([C@H]2C[C@H](O)[C@@H](CO)O2)cc1C(F)(F)F | HEPG2 | Euclidean distance | 3
C=CC(=O)Nc1cccc(Oc2nc(Nc3ccc(N4CCN(C)CC4)cc3OC)ncc2Cl)c1 | HEPG2 | Euclidean distance | 1.05

The reported value for CN(C)CCc1c[nH]c2ccc(CS(=O)(=O)N3CCCC3)cc12 [Almotriptan Malate] in terms of Euclidean distance is 1.78

Recorded Euclidean distance (compound CNC(=O)c1ccc(N2C(=S)N(c3cnc(C#N)c(C(F)(F)F)c3)C(=O)C23CCC3)cc1F ): 1.01

====

Reported Euclidean distance is given for each of the following molecules.
test system: HEPG2; experiment: Euclidean distance of Cell Painting phenotypic profile (signed KS, 77 features) to DMSO centroid (dimensionless distance); 5 or 10 uM (library dependent); higher = stronger phenotypic change vs DMSO (phenoactivity); conditions: 48 h
Answer as a number with no unit attached.

For record CCC(=O)NCC[C@@H]1CCc2ccc3c(c21)CCO3 the listed Euclidean distance is 1.02

According to the records, this molecule C[C@@H]1CCO[C@H]2Cn3cc(C(=O)NCc4ccc(F)cc4F)c(=O)c(O)c3C(=O)N12 [Dolutegravir Sodium] displays Euclidean distance of 0.621

Briefly, Euclidean distance measured for C=C1C(=O)[C@]23[C@H](O)[C@H]1CC[C@H]2[C@@]12CO[C@]3(O)[C@@H](O)[C@@H]1C(C)(C)CC[C@@H]2O : 1.03

Entry Cc1nc(C)c(Cl)c(O)c1Cl ; Euclidean distance = 0.83

====

test system: A549; experiment: Euclidean distance of Cell Painting phenotypic profile (signed KS, 77 features) to DMSO centroid (dimensionless distance); 5 or 10 uM (library dependent); higher = stronger phenotypic change vs DMSO (phenoactivity); conditions: 48 h
Where a name gives a salt, the structure may show the parent alone.
Measured Euclidean distance, listed per entry for reference.
Form rule: numeric answer, no unit written next to it.

Some compounds with known Euclidean distance results, for comparison:
Compound | Euclidean distance
OC[C@H]1O[C@@H](Oc2cc(O)cc(/C=C/c3ccc(O)cc3)c2)[C@H](O)[C@@H](O)[C@@H]1O [Polydatin] | 2.03
Cc1cc(C)nc(O)n1.O=C(Nc1ccc([N+](=O)[O-])cc1)Nc1ccc([N+](=O)[O-])cc1 [Nicarbazin] | 1.24
CO/N=C(\C(=O)N[C@@H]1C(=O)N2C(C(=O)O)=C(CSc3nnnn3C)CS[C@H]12)c1csc(N)n1 [Cefmenoxime hydrochloride] | 0.643
CC[C@@H]1C(=O)OC[C@@H]1Cc1cncn1C [Pilocarpine HCl] | 0.624
CN1CCC(=C2c3ccccc3CCn3c(C=O)cnc32)CC1 [Alcaftadine] | 0.581
C[C@H](CCC(=O)O)[C@H]1CC[C@H]2[C@@H]3[C@@H](O)C[C@@H]4C[C@H](O)CC[C@]4(C)[C@H]3CC[C@]12C [Ursodiol] | 0.853

Now, please, on to the next compound.
Entry C[C@H]1C[C@@H]2[C@H]([C@@H](O)C[C@@]3(C)[C@H]2CC[C@]3(O)C(=O)CO)[C@@]2(C)C=CC(=O)C=C12 [Methylprednisolone] under A549 had Euclidean distance of 1.96

====

system: 786-O; test: Euclidean distance of Cell Painting phenotypic profile (signed KS, 77 features) to DMSO centroid (dimensionless distance); 5 or 10 uM (library dependent); higher = stronger phenotypic change vs DMSO (phenoactivity); details: 48 h
Where a name gives a salt, the structure may show the parent alone.
Attribute measured: Euclidean distance
# answer = number (no unit)

Some entries whose results are on file:
Molecule | System tested | Attribute measured | Val
Cn1cnc([N+](=O)[O-])c1Sc1ncnc2[nH]cnc12 [Azathioprine] | 786-O | Euclidean distance | 0.644
Clc1ccc(CCCOCCCN2CCCCC2)cc1 [Pitolisant hydrochloride] | 786-O | Euclidean distance | 0.716
COc1cc(/C=C/C(=O)O)ccc1O [Ferulic Acid] | 786-O | Euclidean distance | 0.857
N[C@@H](C(=O)N[C@@H]1C(=O)N2C(C(=O)O)=C(Cl)CS[C@H]12)c1ccccc1 [Cefaclor] | 786-O | Euclidean distance | 1.19
C=CCc1cc(OC)c(O)c(C(=O)NCCO)c1 [Alibendol] | 786-O | Euclidean distance | 2.26
CC(=O)O[C@@]12CO[C@@H]1C[C@H](O)[C@@]1(C)C(=O)[C@H](O)C3=C(C)[C@@H](OC(=O)[C@H](O)[C@@H](NC(=O)OC(C)(C)C)c4ccccc4)C[C@@](O)([C@@H](OC(=O)c4ccccc4)[C@H]21)C3(C)C [Docetaxel Trihydrate] | 786-O | Euclidean distance | 3.61

Moving on to another molecule below.
For CCOC(=O)c1c(CSc2ccccc2)n(C)c2cc(Br)c(O)c(CN(C)C)c12 [Arbidol HCl] the molecule record lists Euclidean distance as 1.37

====

test system: DU145; test: Euclidean distance of Cell Painting phenotypic profile (signed KS, 77 features) to DMSO centroid (dimensionless distance); 5 or 10 uM (library dependent); higher = stronger phenotypic change vs DMSO (phenoactivity); conditions: 48 h
Counter-ions that a name gives are not always drawn.
Attribute measured: Euclidean distance
Field format: numeric only.

Solved cases (3 shown):
Compound | Val
CCOC(=O)C1=C(C)NC(C)=C(C(=O)OC)C1c1cccc([N+](=O)[O-])c1 (configuration not stated) | 0.908
C=CC(=O)Nc1ccc2ncnc(Nc3cccc(Br)c3)c2c1 | 1.78
O=C(O)c1cccnc1Nc1cccc(C(F)(F)F)c1 | 1.02

Consider Cc1ccc(S(=O)(=O)c2ccc([N+](=O)[O-])o2)cc1 . Its measured Euclidean distance is 3.22

Measured Euclidean distance, N#CC(c1ccc(Cl)cc1)c1c(Cl)cc(-n2ncc(=O)[nH]c2=O)cc1Cl (configuration not stated) : 0.762

For Fc1ccc([C@@H]2CCNC[C@H]2COc2ccc3c(c2)OCO3)cc1 [Paroxetine mesylate] the compound record lists Euclidean distance as 1.89

Lab note: COc1ccccc1N1CCN(CCN(C(=O)C2CCCCC2)c2ccccn2)CC1 gave Euclidean distance of 1.84

Recorded Euclidean distance (compound Cc1cccc(-c2nn3c(c2-c2ccnc4ccc(C(N)=O)cc24)CCC3)n1 ): 0.926

For reference, reported Euclidean distance for O=[N+]([O-])c1cncn1CCN1CCOCC1 stands at 1.21

Lab book: Euclidean distance of CNC(=O)c1ccccc1Sc1ccc2c(/C=C/c3ccccn3)n[nH]c2c1 noted as 3.18

Summary for this compound, Cc1ccc(-c2cc(C(F)(F)F)nn2-c2ccc(S(N)(=O)=O)cc2)cc1 : Euclidean distance is 1.67

Per the record, CC(=O)[C@@]1(O)CC[C@H]2[C@@H]3C[C@H](C)C4=CC(=O)C=C[C@]4(C)[C@@]3(F)[C@@H](O)C[C@@]21C has Euclidean distance of 1.54

The recorded Euclidean distance for entry C#CCC(Cc1cnc2nc(N)nc(N)c2n1)c1ccc(C(=O)N[C@@H](CCC(=O)O)C(=O)O)cc1 (some centres not stated) [Pralatrexate] equals 0.922

Lookup result for Nc1nc(=O)[nH]cc1F ; measured Euclidean distance: 0.998

Kindly note the recorded Euclidean distance for CCCCCOC(=O)Nc1nc(=O)n([C@@H]2O[C@H](C)[C@@H](O)[C@H]2O)cc1F , which is 1.15

The compound listed as CC[C@H]1OC(=O)C[C@@H](O)[C@H](C)[C@@H](O[C@@H]2O[C@H](C)[C@@H](O[C@H]3C[C@@](C)(O)[C@@H](O)[C@H](C)O3)[C@H](N(C)C)[C@H]2O)[C@@H](CC=O)C[C@@H](C)C(=O)/C=C/C(C)=C/[C@@H]1CO[C@@H]1O[C@H](C)[C@@H](O)[C@@H](OC)[C@H]1OC has a reported Euclidean distance of 0.612
